Quick reference: Kd of the listed items.
# target.or.test.system: p110α (p110α/p85α) (Homo sapiens)
# Sequence (P42336 whole entry, species assumed): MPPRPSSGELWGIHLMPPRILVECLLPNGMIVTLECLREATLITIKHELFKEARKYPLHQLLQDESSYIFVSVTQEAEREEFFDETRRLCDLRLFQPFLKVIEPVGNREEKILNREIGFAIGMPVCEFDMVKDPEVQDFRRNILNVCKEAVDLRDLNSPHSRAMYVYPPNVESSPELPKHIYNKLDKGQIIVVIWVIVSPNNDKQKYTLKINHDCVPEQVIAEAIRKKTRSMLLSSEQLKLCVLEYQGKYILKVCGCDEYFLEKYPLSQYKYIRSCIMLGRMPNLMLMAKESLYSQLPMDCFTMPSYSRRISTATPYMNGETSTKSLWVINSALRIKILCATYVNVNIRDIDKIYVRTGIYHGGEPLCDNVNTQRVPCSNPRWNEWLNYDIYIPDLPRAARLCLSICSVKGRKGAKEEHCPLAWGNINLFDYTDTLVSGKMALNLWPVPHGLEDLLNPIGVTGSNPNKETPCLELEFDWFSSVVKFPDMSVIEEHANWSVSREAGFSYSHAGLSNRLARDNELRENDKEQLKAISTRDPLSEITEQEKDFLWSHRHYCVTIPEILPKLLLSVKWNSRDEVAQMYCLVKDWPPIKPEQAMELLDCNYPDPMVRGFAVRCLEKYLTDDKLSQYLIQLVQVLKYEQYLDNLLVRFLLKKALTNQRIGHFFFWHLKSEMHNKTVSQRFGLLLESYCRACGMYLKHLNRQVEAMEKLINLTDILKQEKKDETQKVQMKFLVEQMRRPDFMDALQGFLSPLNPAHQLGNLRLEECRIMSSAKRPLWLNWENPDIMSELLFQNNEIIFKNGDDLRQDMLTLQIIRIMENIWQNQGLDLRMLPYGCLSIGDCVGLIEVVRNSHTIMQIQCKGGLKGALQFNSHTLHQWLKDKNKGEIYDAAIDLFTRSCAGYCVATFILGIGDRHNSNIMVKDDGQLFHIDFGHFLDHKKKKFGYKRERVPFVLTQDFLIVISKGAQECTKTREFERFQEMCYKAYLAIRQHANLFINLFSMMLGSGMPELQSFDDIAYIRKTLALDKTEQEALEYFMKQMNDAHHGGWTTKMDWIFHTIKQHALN
# Sequence (P27986 whole entry partner, species assumed): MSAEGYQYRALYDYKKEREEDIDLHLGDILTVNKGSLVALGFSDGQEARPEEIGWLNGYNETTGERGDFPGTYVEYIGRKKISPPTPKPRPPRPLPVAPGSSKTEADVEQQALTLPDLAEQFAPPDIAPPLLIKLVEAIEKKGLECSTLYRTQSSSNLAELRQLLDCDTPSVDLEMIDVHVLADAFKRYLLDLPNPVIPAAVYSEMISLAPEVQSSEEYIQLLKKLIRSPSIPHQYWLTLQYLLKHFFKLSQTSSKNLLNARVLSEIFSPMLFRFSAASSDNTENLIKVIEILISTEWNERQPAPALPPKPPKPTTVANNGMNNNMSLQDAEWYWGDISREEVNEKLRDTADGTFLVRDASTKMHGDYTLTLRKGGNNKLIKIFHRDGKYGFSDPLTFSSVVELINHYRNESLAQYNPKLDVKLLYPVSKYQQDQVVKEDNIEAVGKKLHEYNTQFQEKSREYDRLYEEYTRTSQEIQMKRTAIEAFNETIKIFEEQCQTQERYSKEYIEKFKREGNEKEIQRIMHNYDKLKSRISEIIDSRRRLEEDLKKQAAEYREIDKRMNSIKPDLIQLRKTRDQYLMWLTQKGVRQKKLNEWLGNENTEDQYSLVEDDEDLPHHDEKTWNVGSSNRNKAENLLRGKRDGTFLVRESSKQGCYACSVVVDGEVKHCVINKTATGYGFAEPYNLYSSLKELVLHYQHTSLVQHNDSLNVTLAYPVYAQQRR
# test.protocol: Microscale thermophoresis (MST) binding to labelled p110α/p85α
# condition.description: labelled protein 100 nM, 25 °C
Residues, ends and D or L forms follow the SMILES beside them.

As a guide, the following entries are already answered.
CC(C)C[C@@H]1NC(=O)[C@H](C(C)C)NC(=O)[C@H](CCCNC(=N)N)NC(=O)[C@H](CS)NC(=O)[C@H](C)NC(=O)[C@H](CCC(=O)O)NC1=O [CRVLEA, Cyclo-CRVLEA] (cyclo(CRVLEA))	≥ 1210 µM
CC(C)C[C@@H]1NC(=O)[C@H](C(C)C)NC(=O)[C@H](CCCNC(=N)N)NC(=O)[C@H](CS)NC(=O)[C@H](CCC(=O)O)NC(=O)[C@H](C)NC1=O [CRVLAE, Cyclo-CRVLAE] (cyclo(CRVLAE))	≥ 817 µM
CC(C)C[C@@H]1NC(=O)[C@H](C(C)C)NC(=O)[C@H](CCCNC(=N)N)NC(=O)[C@H](CS)NC(=O)[C@H](CC(=O)O)NC(=O)[C@H](C)NC1=O	11.8 µM
CC(C)C[C@@H]1NC(=O)[C@H](C(C)C)NC(=O)[C@H](CCCNC(=N)N)NC(=O)[C@H](CS)NC(=O)[C@H](C)NC(=O)[C@H](CC(=O)O)NC1=O [CRVLDA, Cyclo-CRVLDA] (cyclo(CRVLDA))	≥ 476 µM

Now consider the entry below.
Quick one: Kd for CC(C)C[C@@H]1NC(=O)[C@H](C(C)C)NC(=O)[C@H](CCCNC(=N)N)NC(=O)[C@H](CS)NC(=O)[C@H](C)NC(=O)[C@H](CCCNC(=N)N)NC1=O [CRVLRA, Cyclo-CRVLRA] (cyclo(CRVLRA)) ?
≥ 140 µM

Where do these numbers come from? They come from paper PMC9894841.
